- measured_target: UniProt:P09237
- Sequence (P09237 whole entry): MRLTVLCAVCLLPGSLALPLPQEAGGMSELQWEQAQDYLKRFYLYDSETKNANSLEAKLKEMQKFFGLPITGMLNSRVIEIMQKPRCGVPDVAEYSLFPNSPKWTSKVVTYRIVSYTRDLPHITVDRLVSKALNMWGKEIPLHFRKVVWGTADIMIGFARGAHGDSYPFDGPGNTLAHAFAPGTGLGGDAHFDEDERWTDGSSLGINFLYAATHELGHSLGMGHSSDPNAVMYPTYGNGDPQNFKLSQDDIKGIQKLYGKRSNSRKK
Each item that follows carries a reported IC50.
Answer with a number only, understood to be in µM.

| compound | measured_number |
| --- | --- |
| COCCOC(=O)N1CCC(C(C(=O)O)N(Cc2ccccn2)S(=O)(=O)c2ccc(-c3ccc(OC)cc3)cc2)CC1 (stereo not drawn) | 3.64 |
| COCCOC(=O)N1CCC(C(NS(=O)(=O)c2ccc(-c3ccc(OC)cc3)cc2)C(=O)O)CC1 (stereo in doubt; 13g) | 4.11 |

So for COC(=O)N1CCC(C(NS(=O)(=O)c2ccc(-c3ccc(OC)cc3)cc2)C(=O)O)CC1 (stereo not drawn) , the logged IC50 turned out to be 5.65

Entry COc1ccc(-c2ccc(S(=O)(=O)NC(C(=O)O)C3CCNCC3)cc2)cc1 (stereo not drawn) ; IC50 = 4.24

Noted for COc1ccc(-c2ccc(S(=O)(=O)NC(C(=O)O)C3CCN(C(=O)N4CCOCC4)CC3)cc2)cc1 (stereo not drawn) : its IC50 reads 8.57

====

What follows is a record of pIC50 for 72 kDa type IV collagenase (Homo sapiens).
Value format note: pIC50 is -log10 of concentration (mol/L); just state the number.

| molecule | pIC50 |
| --- | --- |
| COCCOC(=O)N1CCC(C(C(=O)O)N(CCOC)S(=O)(=O)c2ccc(-c3ccc(OC)cc3)cc2)CC1 (stereo not drawn) | 9.22 |
| COCCOC(=O)N1CCC(C(C(=O)O)N(Cc2ccccn2)S(=O)(=O)c2ccc(-c3ccc(OC)cc3)cc2)CC1 (stereo not drawn) | 9.00 |
| COCCOC(=O)N1CCC(C(C(=O)O)N(C)S(=O)(=O)c2ccc(-c3ccc(OC)cc3)cc2)CC1 (stereo not drawn) | 9.05 |
| COc1ccc(-c2ccc(S(=O)(=O)NC(CC#Cc3ccccc3)C(=O)O)cc2)cc1 (stereo not drawn) | 7.90 |
| COCCOC(=O)N1CCC(C(NS(=O)(=O)c2ccc(Oc3ccccc3)cc2)C(=O)O)CC1 (stereo not drawn) | 7.24 |
| CCCCOc1ccc(S(=O)(=O)NC(C(=O)O)C2CCN(C(=O)OCCOC)CC2)cc1 (stereo not drawn) | 6.26 |

Reported pIC50 for COCCOC(=O)N1CCC(C(NS(=O)(=O)c2ccc(-c3ccc(OC)cc3)cc2)C(=O)O)CC1 (stereo in doubt; 13g) was 9.10

====

Listed here: items and their measured IC50.
- measured_target: Interstitial collagenase (Homo sapiens, UniProt P03956)
- Sequence (P03956 whole entry): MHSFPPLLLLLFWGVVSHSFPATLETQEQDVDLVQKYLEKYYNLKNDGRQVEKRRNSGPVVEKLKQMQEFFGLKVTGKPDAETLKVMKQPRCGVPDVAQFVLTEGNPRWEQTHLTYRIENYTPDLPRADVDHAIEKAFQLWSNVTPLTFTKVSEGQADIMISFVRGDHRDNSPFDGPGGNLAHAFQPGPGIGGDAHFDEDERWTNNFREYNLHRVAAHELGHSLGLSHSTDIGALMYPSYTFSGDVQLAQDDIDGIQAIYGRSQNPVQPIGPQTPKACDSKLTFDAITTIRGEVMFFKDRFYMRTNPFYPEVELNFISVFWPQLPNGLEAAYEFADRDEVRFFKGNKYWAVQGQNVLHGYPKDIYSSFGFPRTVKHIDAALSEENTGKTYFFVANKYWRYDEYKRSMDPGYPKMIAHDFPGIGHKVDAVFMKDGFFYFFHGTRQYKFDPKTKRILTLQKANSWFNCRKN
- protocol: In vitro inhibitory activity against matrix metalloprotease-1
Output spec: scalar in nM, unitless text.

| molecule | IC50 [nM] |
| --- | --- |
| COc1ccc(-c2ccc(S(=O)(=O)NC(C(=O)O)C3CCN(C(=O)N4CCOCC4)CC3)cc2)cc1 (centres undefined) | 1760 |
| COCCOC(=O)N1CCC(C(C(=O)O)N(C)S(=O)(=O)c2ccc(-c3ccc(OC)cc3)cc2)CC1 (centres undefined) | 1850 |
| COCCOC(=O)N1CCC(C(C(=O)O)N(CCOC)S(=O)(=O)c2ccc(-c3ccc(OC)cc3)cc2)CC1 (centres undefined) | 1220 |

For reference, reported IC50 for COCCOC(=O)N1CCC(C(NS(=O)(=O)c2ccc(-c3ccccc3)cc2)C(=O)O)CC1 (centres undefined) stands at 6050

The molecule "COc1ccc(-c2ccc(S(=O)(=O)N[C@@H](C(=O)O)C3CCN(C(=O)OC(C)(C)C)CC3)cc2)cc1" showed IC50 equal to 1370

// field: IC50; key: COC(=O)N1CCC(C(NS(=O)(=O)c2ccc(-c3ccc(OC)cc3)cc2)C(=O)O)CC1 (centres undefined) ; value = 5210

Measured IC50, CCOC(=O)N1CCC(C(NS(=O)(=O)c2ccc(-c3ccc(OC)cc3)cc2)C(=O)O)CC1 (centres undefined) : 2760

====

Some compounds, each annotated with its measured log10 IC50.
- measured_target: Neutrophil collagenase (Homo sapiens)
- Sequence (P22894 whole entry): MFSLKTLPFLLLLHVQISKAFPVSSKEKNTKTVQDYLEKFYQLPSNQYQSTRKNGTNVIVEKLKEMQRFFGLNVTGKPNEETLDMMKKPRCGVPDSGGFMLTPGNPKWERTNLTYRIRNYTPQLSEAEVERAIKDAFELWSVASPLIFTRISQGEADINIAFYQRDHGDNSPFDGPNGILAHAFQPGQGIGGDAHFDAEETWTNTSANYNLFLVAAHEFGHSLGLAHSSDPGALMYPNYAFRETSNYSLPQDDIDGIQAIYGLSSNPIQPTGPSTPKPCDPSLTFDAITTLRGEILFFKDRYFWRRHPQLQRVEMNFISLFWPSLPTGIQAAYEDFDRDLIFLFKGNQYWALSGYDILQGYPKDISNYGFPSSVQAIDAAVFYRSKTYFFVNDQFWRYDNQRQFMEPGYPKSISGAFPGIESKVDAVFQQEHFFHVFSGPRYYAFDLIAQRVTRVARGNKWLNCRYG
- protocol: Inhibitory activity against matrix metalloprotease-8
Scale type: logarithmic (base 10). Underlying IC50 unit: nM.

| compound | measured_target | log10 IC50 |
| --- | --- | --- |
| O=C(CC(CSc1ccccc1)C(=O)O)c1ccc(-c2ccc(Cl)cc2)cc1 (stereo not given) | Neutrophil collagenase (Homo sapiens) | 2.48 |

The reported log10 IC50 of the compound COCCOC(=O)N1CCC(C(NS(=O)(=O)c2ccc(-c3ccccc3)cc2)C(=O)O)CC1 (stereo not given) was 1.65

For CCCCOc1ccc(S(=O)(=O)NC(C(=O)O)C2CCN(C(=O)OCCOC)CC2)cc1 (stereo not given) the compound record lists log10 IC50 as 2.47

The reported log10 IC50 of the compound COc1ccc(-c2ccc(S(=O)(=O)NC(C(=O)O)C3CCNCC3)cc2)cc1 (stereo not given) was 1.48

Lab note: measured log10 IC50 of COCCOC(=O)N1CCC(C(NS(=O)(=O)c2ccc(-c3ccc(SC)cc3)cc2)C(=O)O)CC1 (stereo not given) was 0.26

====

- measured_target: Stromelysin-1 (Homo sapiens, UniProt P08254)
- Sequence (P08254 whole entry): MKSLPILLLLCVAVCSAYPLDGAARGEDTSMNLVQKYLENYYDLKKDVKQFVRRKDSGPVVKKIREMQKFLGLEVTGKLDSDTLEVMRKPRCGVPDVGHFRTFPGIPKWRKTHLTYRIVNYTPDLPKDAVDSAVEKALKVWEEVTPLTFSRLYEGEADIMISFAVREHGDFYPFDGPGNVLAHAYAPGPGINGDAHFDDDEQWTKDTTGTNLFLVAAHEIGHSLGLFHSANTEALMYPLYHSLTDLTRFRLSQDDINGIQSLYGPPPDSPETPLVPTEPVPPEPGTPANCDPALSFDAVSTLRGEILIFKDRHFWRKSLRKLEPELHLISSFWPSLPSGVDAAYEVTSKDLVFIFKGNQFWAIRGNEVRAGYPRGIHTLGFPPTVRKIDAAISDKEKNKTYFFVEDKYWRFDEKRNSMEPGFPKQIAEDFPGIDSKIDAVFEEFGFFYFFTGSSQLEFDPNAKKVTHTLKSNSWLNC
- protocol: In vitro inhibitory activity against matrix metalloprotease-3
Catalogue of molecules with associated pIC50
Keep it numeric: pIC50 is minus log10 of the concentration in mol/L.

Previously resolved entries follow.
| molecule | measured_target | pIC50 |
| --- | --- | --- |
| COc1ccc(-c2ccc(S(=O)(=O)N[C@@H](C(=O)O)C3CCN(C(=O)OC(C)(C)C)CC3)cc2)cc1 | Stromelysin-1 (Homo sapiens, UniProt P08254) | 7.47 |
| COc1ccc(-c2ccc(S(=O)(=O)NC(C(=O)O)C3CCN(C(=O)N4CCOCC4)CC3)cc2)cc1 (stereo not drawn) | Stromelysin-1 (Homo sapiens, UniProt P08254) | 6.66 |
| COc1ccc(-c2ccc(S(=O)(=O)NC(C(=O)O)C3CCN(C(=O)OC(C)C)CC3)cc2)cc1 (stereo not drawn) | Stromelysin-1 (Homo sapiens, UniProt P08254) | 7.38 |
| COCCOC(=O)N1CCC(C(C(=O)O)N(Cc2ccccn2)S(=O)(=O)c2ccc(-c3ccc(OC)cc3)cc2)CC1 (stereo not drawn) | Stromelysin-1 (Homo sapiens, UniProt P08254) | 7.06 |
| COc1ccc(-c2ccc(S(=O)(=O)N[C@H](C(=O)O)C(C)C)cc2)cc1 | Stromelysin-1 (Homo sapiens, UniProt P08254) | 5.72 |
| COCCOC(=O)N1CCC(C(NS(=O)(=O)c2ccc(-c3ccc(SC)cc3)cc2)C(=O)O)CC1 (stereo not drawn) | Stromelysin-1 (Homo sapiens, UniProt P08254) | 7.39 |
| COC(=O)N1CCC(C(NS(=O)(=O)c2ccc(-c3ccc(OC)cc3)cc2)C(=O)O)CC1 (stereo not drawn) | Stromelysin-1 (Homo sapiens, UniProt P08254) | 6.18 |
| COCCOC(=O)N1CCC(C(NS(=O)(=O)c2ccc(Oc3ccccc3)cc2)C(=O)O)CC1 (stereo not drawn) | Stromelysin-1 (Homo sapiens, UniProt P08254) | 6.40 |
| COCCOC(=O)N1CCC(C(C(=O)O)N(C)S(=O)(=O)c2ccc(-c3ccc(OC)cc3)cc2)CC1 (stereo not drawn) | Stromelysin-1 (Homo sapiens, UniProt P08254) | 7.16 |
| CCOC(=O)N1CCC(C(NS(=O)(=O)c2ccc(-c3ccc(OC)cc3)cc2)C(=O)O)CC1 (stereo not drawn) | Stromelysin-1 (Homo sapiens, UniProt P08254) | 6.79 |

For this molecule ( COCCOC(=O)N1CCC(C(NS(=O)(=O)c2ccc(-c3ccc(OC)cc3)cc2)C(=O)O)CC1 (stereo in doubt; 14i) ), measured pIC50 is 7.86

====

Let's look at some molecules and their measured pIC50.
- measured_target: Matrilysin (Homo sapiens)
pIC50: −log10 of the molar value.

Illustrative cases are given below, each with its answer.
| molecule | result |
| --- | --- |
| COCCOC(=O)N1CCC(C(NS(=O)(=O)c2ccc(-c3ccccc3)cc2)C(=O)O)CC1 (stereo not drawn) | < 5.00 |
| COCCOC(=O)N1CCC(C(NS(=O)(=O)c2ccc(Oc3ccccc3)cc2)C(=O)O)CC1 (stereo not drawn) | < 5.00 |

The observed pIC50 for CCCCOc1ccc(S(=O)(=O)NC(C(=O)O)C2CCN(C(=O)OCCOC)CC2)cc1 (stereo not drawn) when tested with Matrilysin (Homo sapiens) stands at < 5.00
